- SYSTEM: Serine/threonine-protein kinase B-raf (Homo sapiens, UniProt P15056, V600E)
- Sequence (P15056 2-766 V600E limits assumed): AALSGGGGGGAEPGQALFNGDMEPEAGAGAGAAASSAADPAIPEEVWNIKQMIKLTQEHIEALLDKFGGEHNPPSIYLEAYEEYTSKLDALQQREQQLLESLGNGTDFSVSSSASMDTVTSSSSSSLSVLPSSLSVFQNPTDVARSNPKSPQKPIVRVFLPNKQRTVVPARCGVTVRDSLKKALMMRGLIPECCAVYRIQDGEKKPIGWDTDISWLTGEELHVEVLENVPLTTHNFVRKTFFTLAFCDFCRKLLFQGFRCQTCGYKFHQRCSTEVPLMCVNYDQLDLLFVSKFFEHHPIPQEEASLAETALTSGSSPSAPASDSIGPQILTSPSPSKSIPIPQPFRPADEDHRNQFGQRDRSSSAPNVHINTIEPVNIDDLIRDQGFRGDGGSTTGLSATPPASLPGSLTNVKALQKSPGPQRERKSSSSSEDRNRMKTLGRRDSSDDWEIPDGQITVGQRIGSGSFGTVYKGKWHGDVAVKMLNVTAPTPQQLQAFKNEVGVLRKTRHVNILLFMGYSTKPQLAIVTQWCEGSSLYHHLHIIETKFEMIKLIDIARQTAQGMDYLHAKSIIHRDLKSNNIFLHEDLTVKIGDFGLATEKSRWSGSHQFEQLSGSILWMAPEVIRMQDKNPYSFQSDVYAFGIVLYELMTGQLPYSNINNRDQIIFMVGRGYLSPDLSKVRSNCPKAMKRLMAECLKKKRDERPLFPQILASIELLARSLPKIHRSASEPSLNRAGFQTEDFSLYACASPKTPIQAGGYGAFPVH
- EXPERIMENTAL_DETAILS: B-RAF (V600E) Kinase Assay: In a dilution series 10 uL/well of test substance solution are placed in a multiwell plate. The dilution series is selected so that generally a range of concentrations of 2 uM to 0.119 nM or 0.017 nM is covered. If necessary the initial concentration of 2 uM is changed to 50 uM, 10 uM or 0.4 uM or 0.2857 uM and further dilution is carried out accordingly. The final concentration of DMSO is 5%. 10 uL/well of the B-Raf (V600E)-kinase solution are pipetted in (containing 0.5 ng B-Raf (V600E)-kinase (e.g. from Upstate) in 20 mM Tris-HCl pH 7.5, 0.1 mM EDTA, 0.1 mM EGTA, 0.286 mM sodium orthovanadate, 10% glycerol, 1 mg/mL bovine serum albumin, 1 mM dithiothreitol) and the mixture is incubated for 1 h at RT under with shaking. The kinase reaction is started by the addition of 20 uL/well ATP solution [final concentration: 250 uM ATP, 30 mM Tris-HCl pH 7.5, 0.02% Brij, 0.2 mM sodium orthovanadate, 10 mM magnesium acetate, 0.1 mM EGTA, phosphatase cocktail (Sigma, #P2850, dilution recommended by the manufacturer)] and 10 uL/well MEK1 solution [containing 50 ng biotinylated MEK1 (prepared from purified MEK1 according to standard procedure, e.g. with EZ-Link Sulpho-NHS-LC-Biotin reagent, Pierce, #21335)] and carried out for 60 min at RT with constant shaking. The reaction is stopped by the addition of 12 uL/well of a 100 mM EDTA solution and incubation is continued for a further 5 min. 55 uL/well of the reaction solution are transferred into a streptavidin-coated plate (e.g. Streptawell HighBond, Roche, #11989685001) and shaken gently for 1 h at RT, in order to bind biotinylated MEK1 to the plate. After elimination of the liquid the plate is washed five times with 200 uL/well of 1ÿPBS and 100 uL/well solution of primary antibody plus europium-labelled secondary antibody [Anti Phospho-MEK (Ser217/221), Cell Signaling, #9121 and Eu-N1 labelled goat-anti-rabbit antibody, Perkin Elmer, #AD0105] is added, the primary antibody is diluted 1:2000 and the secondary antibody is diluted to 0.4-0.5 ug/mL in Delfia Assay Buffer (Perkin Elmer, #1244-111). After 1 h shaking at RT the solution is poured away and washed five times with 200 uL/well Delfia Wash Buffer (Perkin Elmer, #4010-0010/#1244-114). After the addition of 200 uL/well Enhancement Solution (Perkin Elmer, #4001-0010/#1244-105) the mixture is shaken for 10 min at RT and then measured in a Wallac Victor using the program "Delfia Time Resolved Fluorescence (Europium)". IC50 values are obtained from these dosage-activity curves using a software program (GraphPadPrizm).
# pIC50 per record follows
FYI, pIC50 means -log10 of a concentration in mol per litre.

Take a look at these entries with their results.
>>> test_result("Cc1ccc(NC(=O)c2ccc(C(C)(C)C)s2)cc1-n1cc(-c2cncc(N3CCN(C)CC3)c2)nn1")
8.22
>>> test_result("CCN1CCN(c2cncc(-c3cn(-c4cc(C(=O)Nc5cc(C(C)(C)C)on5)ccc4C)nn3)c2)CC1C (stereo not given)")
7.96
>>> test_result("Cc1ccc(NC(=O)c2ccc(C(C)(C)C)s2)cc1-n1cc(-c2cncc(N3CCN(CC(C)C)CC3)c2)nn1")
7.74
>>> test_result("C=CCN1CCN(c2cncc(-c3cn(-c4cc(NC(=O)c5ccc(C(C)(C)C)s5)ccc4C)nn3)c2)CC1")
7.89

Consider the record given below.
Item under review: `Cc1ccc(NC(=O)c2ccc(C(C)(C)C)s2)cc1-n1cc(-c2cncc(N3CCNCC3)c2)nn1` . Reported pIC50?
8.40
